All values here come from patent US11427783B2.

test: physchem; conditions: n-octanol/water
In this scheme, each record receives a class according to its logP; the ranges are low (below 3), intermediate (3 to below 4), high (4 or more)

• C=CCCCCCCCCO = intermediate
• CC(C)=CCCC1=CCC(C)(C=O)CC1 (racemic) = high
• CCOC(=O)C(C)CC (racemic) [(+−)-ethyl 2-methylbutanoate] = low
• CC1=CCC(CCC(C)C(C)O)C1(C)C (racemic) = high
• O=C1CCCCCCCCCCC(=O)OCCO1 = intermediate
• CCCCCC(=O)OCC [ETHYL HEXANOATE] = intermediate
• CC(=O)OC1CCC2C(C)(C)CCCC2(C)C1 (centres unmarked) = high
• CCCc1ccc2c(c1)OCC(=O)CO2 [7-PROPYL-2H,4H-1,5-BENZODIOXEPIN-3-ONE] = low
• CC/C=C\CC1=C(C)CCC1=O = low
• CCC(C)C(=O)OC(C)C (racemic) [(+−)-ISOPROPYL 2-METHYLBUTANOATE] = low
• COCC(C)Cc1ccccc1 (racemic) [(+−)-(3-methoxy-2-methylpropyl)benzene] = intermediate
• CC/C=C\C[C@H]1C(=O)CC[C@@H]1CC(=O)OC (racemic) = low
• CC(=O)O[C@@H]1CC[C@@H]2C(C)(C)CCC[C@@]2(C)C1 (racemic) = high
• O=C(OCc1ccccc1)c1ccccc1 [BENZYL BENZOATE] = intermediate
• CC/C=C\CCOC(=O)C/C=C\CC [(3Z)-3-hexen-1-yl (3Z)-3-hexenoate] = high
• C/C=C/c1ccc(O)c(OC)c1 [2-methoxy-4-[(1E)-1-propen-1-yl]phenol] = low
• CCOC(C)OC1CCCCCCCCCCC1 (racemic) [(+−)-(1-ethoxyethoxy)cyclododecane] = high
• CC(C)[C@@H]1CC[C@@H](C)CC1=NO = low
• CC1=CC2CC(C=O)C1CC2C(C)C (centres unmarked) = intermediate
• CCCCOC(C)=O [BUTYL ACETATE] = low
• CCCCCCCCCCCC=O = high
• CCCCCC(C#N)CCC (racemic) [(+−)-2-propylheptanenitrile] = intermediate
